FYI, the data here is from paper doi:10.1101/681668.

# Measurement Target: T1, GST-CDC6 (human, UniProt Q99741 1-560)
# T1 sequence: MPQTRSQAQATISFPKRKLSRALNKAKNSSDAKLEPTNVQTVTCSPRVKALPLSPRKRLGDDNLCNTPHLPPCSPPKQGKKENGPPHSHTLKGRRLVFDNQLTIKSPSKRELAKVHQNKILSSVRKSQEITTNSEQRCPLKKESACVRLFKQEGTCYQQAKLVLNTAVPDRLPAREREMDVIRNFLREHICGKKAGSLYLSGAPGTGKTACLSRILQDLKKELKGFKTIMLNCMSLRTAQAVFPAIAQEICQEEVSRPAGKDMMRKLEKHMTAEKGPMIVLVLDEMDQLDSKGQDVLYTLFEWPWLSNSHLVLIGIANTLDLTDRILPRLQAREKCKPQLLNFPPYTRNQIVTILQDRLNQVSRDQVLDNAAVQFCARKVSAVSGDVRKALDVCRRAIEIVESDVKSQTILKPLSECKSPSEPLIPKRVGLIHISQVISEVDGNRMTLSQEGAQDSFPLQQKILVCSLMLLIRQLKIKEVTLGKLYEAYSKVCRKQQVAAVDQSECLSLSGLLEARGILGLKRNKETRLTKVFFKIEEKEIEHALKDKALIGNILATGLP
# Method Notes: pull-down

| Binder | binding result |
| --- | --- |
| MBP-ORC1 1-240 (domain or fragment) MAHYPTRLKTRKTYSWVGRPLLDRKLHYQTYREMCVKTEGCSTEIHIQIGQFVLIEGDDDENPYVAKLLELFEDDSDPPPKKRARVQWFVRFCEVPACKRHLLGRKPGAQEIFWYDYPACDSNINAETIIGLVRVIPLAPKDVVPTNLKNEKTLFVKLSWNEKKFRPLSSELFAELNKPQESAAKCQKPVRAKSKSAESPSWTPAEHVAKRIESRHSASKSRQTPTHPLTPRARKRLELG | binds |
| MBP-ORC1 180-400 (domain or fragment) QESAAKCQKPVRAKSKSAESPSWTPAEHVAKRIESRHSASKSRQTPTHPLTPRARKRLELGNLGNPQMSQQTSCASLDSPGRIKRKVAFSEITSPSKRSQPDKLQTLSPALKAPEKTRETGLSYTEDDKKASPEHRIILRTRIAASKTIDIREERTLTPISGGQRSSVVPSVILKPENIKKRDAKEAKAQNEATSTPHRIRRKSSVLTMNRIRQQLRFLGN | binds |
| MBP-ORC1 fragment (165-250) (domain or fragment) FRPLSSELFAELNKPQESAAKCQKPVRAKSKSAESPSWTPAEHVAKRIESRHSASKSRQTPTHPLTPRARKRLELGNLGNPQMSQQ | binds |
| MBP-ORC1-230-400 (domain or fragment) TPRARKRLELGNLGNPQMSQQTSCASLDSPGRIKRKVAFSEITSPSKRSQPDKLQTLSPALKAPEKTRETGLSYTEDDKKASPEHRIILRTRIAASKTIDIREERTLTPISGGQRSSVVPSVILKPENIKKRDAKEAKAQNEATSTPHRIRRKSSVLTMNRIRQQLRFLGN | binds |
| MBP-ORC1-350-400 (domain or fragment) SVILKPENIKKRDAKEAKAQNEATSTPHRIRRKSSVLTMNRIRQQLRFLGN | binds |
| MBP-ORC1-180-240 (domain or fragment) QESAAKCQKPVRAKSKSAESPSWTPAEHVAKRIESRHSASKSRQTPTHPLTPRARKRLELG | binds |
| MBP-ORC1-230-400 A-A (domain or fragment) TPRARARAELGNLGNPQMSQQTSCASLDSPGRIKRKVAFSEITSPSKRSQPDKLQTLSPALKAPEKTRETGLSYTEDDKKASPEHRIILRTRIAASKTIDIREERTLTPISGGQRSSVVPSVILKPENIKKRDAKEAKAQNEATSTPHRIRRKSSVLTMNRIRQQLRFLGN | binds |
